Examples of compounds with documented LogSel follow.
- system_under_test: human GABAA α2β2γ1 receptor (Homo sapiens (Human), UniProt P47869+Q8N1C3)
- experiment_summary: Radioligand binding assay, competition for [3H]RO7239181, γ1-containing GABAA subtype α2β2γ1
- recorded_conditions: Table 3; Log[Ki α1β3γ2 (nM)/Ki α2β2γ1 (nM)]

Reference set (3 entries):
> print(dat)
                                   compound  readout  result
1  Cc1nnc2n1-c1ccc(Cl)cc1C(c1ccccc1)=NC2 [Alprazolam, reference compound]   LogSel    −2.3
2  O=c1ccn2c(n1)CN=C(c1ccccc1F)c1cc(Cl)ccc1-2 [RE-A, reference compound]   LogSel   −0.64
3  Cc1ncc2n1-c1ccc(Cl)cc1C(c1ccccc1F)=NC2 [Midazolam, reference compound]   LogSel    −2.2

Now, please, on to the next compound.
Exercise: Any idea what its LogSel is? The compound is Cc1nnc2n1-c1ccc(Cl)cc1C(c1ccccc1Cl)=NC2 [Triazolam, reference compound]
Key: −1.5

* * *

- system_under_test: human GABAA α5β2γ1 receptor (Homo sapiens (Human), UniProt P31644+Q8N1C3)
- experiment_summary: Radioligand binding assay, competition for [3H]RO7239181, γ1-containing GABAA subtype α5β2γ1
- recorded_conditions: membranes of HEK293F cells, [3H]RO7239181 1.5 nM, mean of two determinations; read-out: Ki h-GABAA α5β2γ1
Reported Ki values follow for various molecules
Answer with a number only, understood to be in nM.

Some molecules with recorded Ki:
> print(dat)
                                        smi  measurement.units  numeric.result
1  CCO/C=C/c1cn2c(nc1=O)[C@H](C)N=C(c1c(F)cccc1F)c1c-2ccc(Cl)c1Cl                 nM             4.9
2  CCOCCc1cn2c(nc1=O)CN=C(c1c(F)cccc1F)c1c-2ccc(Cl)c1Cl                 nM               3
3  CCO/C=C/c1cn2c(nc1=O)CN=C(c1c(F)cccc1F)c1c-2ccc(Cl)c1Cl                 nM             2.1
4  CCOCCc1cn2c(nc1=O)[C@H](C)N=C(c1c(F)cccc1F)c1c-2ccc(C(F)(F)F)c1Cl                 nM             6.6
5  CCO/C=C/c1cn2c(nc1=O)[C@H](C)N=C(c1c(F)cccc1F)c1c-2ccc(C(F)(F)F)c1Cl                 nM             9.7
6  C[C@@H]1N=C(c2c(F)cccc2F)c2c(ccc(C(F)(F)F)c2Cl)-n2cc(CO)c(=O)nc21                 nM            11.2

Switching to the query record.
Exercise: Could you tell me which Ki is on file for "CNC(=O)c1cn2c(nc1=O)[C@H](C)N=C(c1c(F)cccc1F)c1c-2ccc(C(F)(F)F)c1Cl" ?
Key: 6.2

* * *

Reported Ki is given for each of the following molecules.
- system_under_test: human GABAA α2β2γ1 receptor (Homo sapiens (Human), UniProt P47869+Q8N1C3)
- experiment_summary: Radioligand binding assay, competition for [3H]RO7239181, γ1-containing GABAA subtype α2β2γ1
- recorded_conditions: membranes of HEK293F cells, [3H]RO7239181 20-30 nM, mean of two determinations; read-out: Ki h-GABAA α2β2γ1
Param answer (str): number followed by unit.

> print(dat)
                                        smi  readout     result
1  CCO/C=C/c1cn2c(nc1=O)CN=C(c1c(F)cccc1F)c1c-2ccc(C(F)(F)F)c1Cl       Ki  0.0479 µM
2  CCOCCc1cn2c(nc1=O)[C@H](C)N=C(c1c(F)cccc1F)c1c-2ccc(C(F)(F)F)c1Cl       Ki   0.101 µM
3  CCO/C=C/c1cn2c(nc1=O)[C@H](C)N=C(c1c(F)cccc1F)c1c-2ccc(C(F)(F)F)c1Cl       Ki  0.0606 µM

Exercise: Which measured Ki value corresponds to "CCO/C=C/c1cn2c(nc1=O)CN=C(c1c(F)cccc1F)c1c-2ccc(Cl)c1Cl" ?
Key: 0.0153 µM

Exercise: Consider next the molecule "CCO/C=C/c1cn2c(nc1=O)[C@H](C)N=C(c1c(F)cccc1F)c1c-2ccc(Cl)c1Cl" in the same way.
Key: 0.0241 µM

Exercise: And for "C[C@@H]1N=C(c2c(F)cccc2F)c2c(ccc(C(F)(F)F)c2Cl)-n2cc(CO)c(=O)nc21" ?
Key: 0.0446 µM

Exercise: Subsequent entry: "CCOCCc1cn2c(nc1=O)CN=C(c1c(F)cccc1F)c1c-2ccc(C(F)(F)F)c1Cl"
Key: 0.075 µM

* * *

- system_under_test: human GABAA α2β2γ1 receptor (Homo sapiens (Human), UniProt P47869+Q8N1C3)
- experiment_summary: Radioligand binding assay, competition for [3H]RO7239181, γ1-containing GABAA subtype α2β2γ1
- recorded_conditions: Table 2; membranes of HEK293F cells, [3H]RO7239181; read-out: Ki h-GABAA α2β2γ1
readout: Ki (µM)
Enter your answer as a number in µM; do not include the unit.

Sample answers from the record:
> print(dat)
                                        smi  numeric.result
1  CCOCCc1cn2c(nc1=O)CN=C(c1c(F)cccc1F)c1c-2ccc(Cl)c1Cl          0.0303
2  CCO/C=C/c1cn2c(nc1=O)CN=C(c1c(F)cccc1F)c1c-2ccc(C(F)(F)F)c1Cl          0.0479
3  CCO/C=C/c1cn2c(nc1=O)[C@H](C)N=C(c1c(F)cccc1F)c1c-2ccc(Cl)c1Cl          0.0241

Exercise: For the compound shown here, "CCOCCc1cn2c(nc1=O)[C@H](C)N=C(c1c(F)cccc1F)c1c-2ccc(C(F)(F)F)c1Cl" , give the reported Ki.
Key: 0.101

Exercise: Moving on to "CCO/C=C/c1cn2c(nc1=O)[C@H](C)N=C(c1c(F)cccc1F)c1c-2ccc(C(F)(F)F)c1Cl"
Key: 0.0606

Exercise: Likewise for "CCO/C=C/c1cn2c(nc1=O)CN=C(c1c(F)cccc1F)c1c-2ccc(Cl)c1Cl" ?
Key: 0.0153

Exercise: // query: "CNC(=O)c1cn2c(nc1=O)[C@H](C)N=C(c1c(F)cccc1F)c1c-2ccc(C(F)(F)F)c1Cl"
Key: 0.0308

* * *

- system_under_test: human GABAA α5β2γ1 receptor (Homo sapiens (Human), UniProt P31644+Q8N1C3)
- experiment_summary: Radioligand binding assay, competition for [3H]RO7239181, γ1-containing GABAA subtype α5β2γ1
Ki strictly under 3 nM means condition met; at 3 nM or over means condition not met.

Consider the worked cases shown below.
> print(dat)
                                        smi              label
1  Cc1ccc2c(c1Cl)C(c1c(F)cccc1F)=N[C@@H](C)c1nc(=O)c(C)cn1-2      condition met
2  O=c1nc2n(cc1Br)-c1ccc(Br)c(Cl)c1C(c1c(F)cccc1F)=NC2      condition met
3  O=c1ccn2c(n1)CN=C(c1c(F)cccc1F)c1c-2ccc(Cl)c1Cl      condition met
4  C[C@@H]1N=C(c2c(F)cccc2F)c2c(ccc(Br)c2Cl)-n2ccc(=O)nc21      condition met
5  O=c1ccn2c(n1)CN=C(c1ccccc1F)c1c-2ccc(Cl)c1Cl  condition not met
6  C[C@@H]1N=C(c2c(F)cccc2F)c2c(ccc(Cl)c2Br)-n2cc(Br)c(=O)nc21  condition not met

Now consider a different molecule.
Exercise: Confirm or reject: Ki of "C[C@@H]1N=C(c2c(F)cccc2F)c2c(ccc(Cl)c2Cl)-n2ccc(=O)nc21" lies strictly below 3 nM
Key: condition met

* * *

- system_under_test: human GABAA α2β2γ1 receptor (Homo sapiens (Human), UniProt P47869+Q8N1C3)
- experiment_summary: Radioligand binding assay, competition for [3H]RO7239181, γ1-containing GABAA subtype α2β2γ1
- recorded_conditions: Log[Ki α1β3γ2 (nM)/Ki α2β2γ1 (nM)]
readout: LogSel
A bare number is all that is needed in reply.

In the examples that follow, each entry is paired with its recorded LogSel.
> print(dat)
                                         smi  readout  numeric.result
 1  O=c1ccn2c(n1)CN=C(c1ccccc1F)c1c-2ccc(Cl)c1Cl   LogSel            1.09
 2  Cc1ccc2c(c1Cl)C(c1c(F)cccc1F)=N[C@@H](C)c1nc(=O)c(C)cn1-2   LogSel            1.51
 3  CCOCCc1cn2c(nc1=O)[C@H](C)N=C(c1c(F)cccc1F)c1c-2ccc(Cl)c1Cl   LogSel            1.79
 4  O=c1ccn2c(n1)CN=C(c1c(F)cccc1F)c1c-2ccc(Cl)c1Br   LogSel            1.57
 5  CCO/C=C/c1cn2c(nc1=O)CN=C(c1c(F)cccc1F)c1c-2ccc(Cl)c1Cl   LogSel            1.87
 6  CCc1cn2c(nc1=O)[C@H](C)N=C(c1c(F)cccc1F)c1c-2ccc(Cl)c1Cl   LogSel            1.77
 7  C[C@@H]1N=C(c2c(F)cccc2F)c2c(ccc(Cl)c2Cl)-n2ccc(=O)nc21   LogSel            1.84
 8  O=c1nc2n(cc1Br)-c1ccc(Cl)c(Cl)c1C(c1c(F)cccc1F)=NC2   LogSel            2.28
 9  C[C@@H]1N=C(c2c(F)cccc2F)c2c(ccc(Cl)c2Br)-n2ccc(=O)nc21   LogSel            1.55
10  CCO/C=C/c1cn2c(nc1=O)CN=C(c1c(F)cccc1F)c1c-2ccc(C(F)(F)F)c1Cl   LogSel            2.49

Exercise: Entry "C[C@@H]1N=C(c2c(F)cccc2F)c2c(ccc(C(F)(F)F)c2Cl)-n2cc(C(=O)NC3CC3)c(=O)nc21" has what LogSel?
Key: 2.53

Exercise: Now give it for "CCOCCc1cn2c(nc1=O)[C@H](C)N=C(c1c(F)cccc1F)c1c-2ccc(C(F)(F)F)c1Cl" too.
Key: 1.95
